targetSystem: feline FcRn complex (FcRn-α subunit and β-microglobulin), biotin labeled (feline)
testMethodNotes: SPR, pH 7.4
pKd: −log10 of the molar value.
measurementName: pKd

- feline IgG1a S254I (antibody, part only; not given: Variable domains, not shown: another chain or arm of the molecule) constant: ASTTAPSVFPLAPSCGTTSGATVALACLVLGYFPEPVTVSWNSGALTSGVHTFPAVLQASGLYSLSSMVTVPSSRWLSDTFTCNVAHPPSNTKVDKTVRKTDHPPGPKPCDCPKCPPPEMLGGPSIFIFPPKPKDTLSIIRTPEVTCLVVDLGPDDSDVQITWFVDNTQVYTAKTSPREEQFNSTYRVVSVLPILHQDWLKGKEFKCKVNSKSLPSPIERTISKAKGQPHEPQVYVLPPAQEELSRNKVSVTCLIKSFHPPDIAVEWEITGQPEPENNYRTTPPQLDSDGTYFVYSKLSVDRSHWQRGNTYTCSVSHEALHSHHTQKSLTQSPGK: 4.79
